Test system: HEK-293T
ASSAY PROTOCOL: Multiplex assay against HEK293T
Format: toxicity, cell-based
PROTOCOL CONDITIONS: human, 24 h, 10 µM, compound concentration 10 uM, replicate 1
Entries annotated with measured Population Healthy Nuclei (%)

{"columns": ["MOLECULE", "TEST VALUE"],
 "data": [
  ["CN[C@@H](C)C(=O)N[C@H](C(=O)N1CCC[C@H]1C(=O)Nc1snnc1-c1ccccc1)C1CCCCC1", "71%"],
  ["CCc1cc2cc(NS(=O)(=O)c3ccc(C#N)cc3)ccc2n(CC)c1=O", "80%"],
  ["Cl.NCCc1ccc(O)c(O)c1 [DOPAMINE HYDROCHLORIDE]", "79%"],
  ["Cl.N=C(N)NC(=O)Cc1c(Cl)cccc1Cl [GUANFACINE HYDROCHLORIDE]", "75%"],
  ["Cc1onc(-c2ccccc2Cl)c1C(=O)N(C)c1ccc(Cl)cc1", "79%"],
  ["O=C1[C@H](Cc2ccc(O)cc2)N2C(=O)CCN(C(=O)NCc3ccccc3)[C@H]2CN1Cc1cccc2ccccc12", "75%"],
  ["N#Cc1cc(F)cc(-c2nc(-c3ccc(F)cn3)no2)c1", "74%"],
  ["O=C(CCCc1ccccc1)Nc1nc2ccccc2c(=O)s1", "80%"],
  ["O=C(NCCN1CCC(n2c(=O)[nH]c3cc(Cl)ccc32)CC1)c1ccc(F)cc1 [HALOPEMIDE]", "72%"],
  ["COC[C@@H](c1ccc(C(F)(F)F)cc1)N1CCN(C2(C)CCN(C(=O)c3c(C)ncnc3C)CC2)C[C@@H]1C.O=C(O)/C=C\\C(=O)O [VICRIVIROC MALEATE]", "80%"]
]}

Inquiry: Using the record for COc1cccc2c1c(NS(=O)(=O)c1ccc(Cl)s1)nn2Cc1cccc(CNC(=O)C(C)(C)O)c1 , report its Population Healthy Nuclei (%).
Reply text: 73%

====

Test system: Fibroblast
ASSAY PROTOCOL: Multiplex assay against human fibroblast
Format: toxicity, cell-based
PROTOCOL CONDITIONS: 12 h, 1 µM, compound concentration 1 uM, replicate 2
Entries annotated with measured Population Pyknosed Nuclei (%)
Report the figure in % without appending any unit label.

{"columns": ["MOLECULE", "Population Pyknosed Nuclei (%)"],
 "data": [
  ["N#Cc1c(Oc2cccc(OS(=O)(=O)CCCC(F)(F)F)c2)cccc1C(F)(F)F", 24],
  ["Cc1noc(-c2ccc(-c3ccc(CC(=O)O)cc3)cc2)c1NC(=O)O[C@H](C)c1ccccc1Cl", 18],
  ["Cc1sc2c(c1C)C(c1ccc(Cl)cc1)=N[C@@H](CC(=O)NCCCCCCCCNC(=O)COc1cccc3c1C(=O)N(C1CCC(=O)NC1=O)C3=O)c1nnc(C)n1-2 (stereo partly drawn)", 31],
  ["COc1cccc2c1c(NS(=O)(=O)c1ccc(Cl)s1)nn2Cc1cccc(CNC(=O)C(C)(C)O)c1", 18],
  ["CC(C)COc1ccc(CNC(=O)N(Cc2ccc(F)cc2)C2CCN(C)CC2)cc1 [PIMAVANSERIN]", 16]
]}

Inquiry: Using the record for CCCCC(=O)N(Cc1ccc(-c2ccccc2-c2nnn[nH]2)cc1)[C@H](C(=O)O)C(C)C , report its Population Pyknosed Nuclei (%).
Reply text: 24

Inquiry: Using the record for CC(C)(C)c1cc(NC(=O)Nc2ccc(-c3cn4c(n3)sc3cc(OCCN5CCOCC5)ccc34)cc2)no1 [QUIZARTINIB] , report its Population Pyknosed Nuclei (%).
Reply text: 23

Inquiry: Using the record for O=C1[C@H](Cc2ccc(O)cc2)N2C(=O)CCN(C(=O)NCc3ccccc3)[C@H]2CN1Cc1cccc2ccccc12 , report its Population Pyknosed Nuclei (%).
Reply text: 26

Inquiry: Using the record for Cc1cnc(-c2cc(N3CCN(C(=O)CCS(C)(=O)=O)CC3)ncc2Cl)c(C)c1 , report its Population Pyknosed Nuclei (%).
Reply text: 41

Inquiry: Using the record for Cl.N=C(N)NC(=O)Cc1c(Cl)cccc1Cl [GUANFACINE HYDROCHLORIDE] , report its Population Pyknosed Nuclei (%).
Reply text: 31

Inquiry: Using the record for CCCCCC(O)/C=C/[C@H]1C(=O)CC(O)C1C/C=C\CCCC(=O)O (stereo partly drawn) , report its Population Pyknosed Nuclei (%).
Reply text: 18
